Assay: Antiproliferative activity against human Bel7402 cells after 72 hrs by MTT assay
Format: functional, cell-based
Conditions: Bel-7402, 72 h
quantityMeasured: log10 IC50 (log10 of the value in µM)
A value of 2 here means IC50 of 100 in µM, since values are log10.

Summary for this compound, CN1c2ccccc2C(=O)N2CCc3c([nH]c4ccccc34)C21 (stereo not given) : log10 IC50 is 0.09

Summary for this compound, COC(=O)CCC(=O)OCCOc1no[n+]([O-])c1S(=O)(=O)c1ccccc1 : log10 IC50 is 1.45

Summary for this compound, CN1c2ccccc2C(=O)N2CCc3c(n(CCOC(=O)CCC(=O)OCCOc4no[n+]([O-])c4S(=O)(=O)c4ccccc4)c4ccccc34)C21 (stereo not given) : log10 IC50 is 0.19

Summary for this compound, CN1c2ccccc2C(=O)N2CCc3c(n(CCOc4no[n+]([O-])c4S(=O)(=O)c4ccccc4)c4ccccc34)C21 (stereo not given) : log10 IC50 is -0.26

Summary for this compound, O=C(O)CCC(=O)OCCOc1no[n+]([O-])c1S(=O)(=O)c1ccccc1 : log10 IC50 is 1.33

Summary for this compound, CN1c2ccccc2C(=O)N2CCc3c(n(CCCO[N+](=O)[O-])c4ccccc34)C21 (stereo not given) : log10 IC50 is 1.11

Summary for this compound, CN1c2ccccc2C(=O)N2CCc3c(n(CCCCCCO[N+](=O)[O-])c4ccccc34)C21 (stereo not given) : log10 IC50 is 1.46

Summary for this compound, CN1c2ccccc2C(=O)N2CCc3c(n(CCCOc4no[n+]([O-])c4S(=O)(=O)c4ccccc4)c4ccccc34)C21 (stereo not given) : log10 IC50 is 0.79

Summary for this compound, CN1c2ccccc2C(=O)N2CCc3c(n(CCCOC(=O)CCC(=O)OCCOc4no[n+]([O-])c4S(=O)(=O)c4ccccc4)c4ccccc34)C21 (stereo not given) : log10 IC50 is 0.67

Summary for this compound, CN1c2ccccc2C(=O)N2CCc3c(n(CCCCCCOc4no[n+]([O-])c4S(=O)(=O)c4ccccc4)c4ccccc34)C21 (stereo not given) : log10 IC50 is 0.32
